# experimental.target: Beta-galactosidase (Escherichia coli)
# test: potency against CXCR6 with APJ panel – cell-based, beta-arrestin, DiscoveRx, uHTS hits, dose response (AID 624129)
# measurement.setup: CXCR6 beta-arrestin (DiscoveRx) antagonist cell assay, b-galactosidase, dose range 1
Calls of active or inactive are those of the source. No rule for the calls is given here.
measure.name: IC50

Consider the worked cases shown below.
Prompt: Would you kindly share the measured IC50 for C=C1C(=O)c2sccc2C(c2ccc(OC)c(OC)c2)C1COC(C)=O (stereo not given) ?
Response: > 80 µM (inactive)

Prompt: Would you kindly share the measured IC50 for "CC(C)c1ccc(O)c(NC(=S)NC(=O)c2cccnc2)c1" ?
Response: inactive

Prompt: Would you kindly share the measured IC50 for "Cc1[nH][nH]c(=O)c1C(c1c(C)[nH][nH]c1=O)c1cn(Cc2ccc(Cl)c(Cl)c2)c2ccccc12" ?
Response: > 80 µM (inactive)

Prompt: Would you kindly share the measured IC50 for "Cc1cc(S(=O)(=O)c2ccc(Cl)cc2)nc(S(=O)(=O)c2ccc(Cl)cc2)c1C#N" ?
Response: inactive

Prompt: Would you kindly share the measured IC50 for "CC(=O)OCCCNc1cc(Sc2ccc(Cl)cc2)c2nonc2c1[N+](=O)[O-]" ?
Response: 39.8 µM

Let's switch to this molecule now.
Prompt: Would you kindly share the measured IC50 for "O=[N+]([O-])c1cc(Cc2ccccc2)cc(C=Nc2ccc(N3CCOCC3)cc2)c1O" ?
Response: inactive

###

# experimental.target: Beta-galactosidase (Escherichia coli)
# test: potency against CXCR6 with APJ panel – cell-based, beta-arrestin, DiscoveRx, uHTS hits, dose response (AID 624129)
# measurement.setup: CXCR6 beta-arrestin (DiscoveRx) antagonist cell assay, b-galactosidase, dose range 1, mean IC50 across replicates
pIC50: −log10 of the molar value.
Exercise: state measured pIC50 for each of the compounds provided.

Prompt: Would you kindly share the measured pIC50 for "CN(C)c1nc(=NCc2ccco2)ss1" ?
Response: < 4.10

Prompt: Would you kindly share the measured pIC50 for "CC(=O)Nc1ccc(Sc2ccc([N+](=O)[O-])o2)cc1" ?
Response: < 4.10

Prompt: Would you kindly share the measured pIC50 for "COc1cc(/C=C/c2ccc3c(Br)cc(Br)c(O)c3n2)ccc1O" ?
Response: < 4.10

Prompt: Would you kindly share the measured pIC50 for "O=C(Nc1nccs1)c1sc2cc(Cl)ccc2c1Cl" ?
Response: < 4.10

Prompt: Would you kindly share the measured pIC50 for "COc1ccc(OC)c(/C=C/c2ccc3cccc(O)c3n2)c1" ?
Response: < 4.10

Prompt: Would you kindly share the measured pIC50 for "Cc1ccc2oc(/N=C(\N)NC(=O)C(C)(C)C)nc2c1" ?
Response: < 4.10

Prompt: Would you kindly share the measured pIC50 for CCC1CCCCN1S(=O)(=O)c1ccc(NC(=O)c2nc(S(C)(=O)=O)ncc2Cl)cc1 (stereo unspecified) ?
Response: < 4.10

Prompt: Would you kindly share the measured pIC50 for "O=[N+]([O-])c1ccc(Sc2cccc[n+]2[O-])c2nonc12" ?
Response: < 4.10

Prompt: Would you kindly share the measured pIC50 for "S=C(NCCCN1CCOCC1)Nc1ccc(Cl)cc1" ?
Response: 4.58

Prompt: Would you kindly share the measured pIC50 for "O=C(CN1CCN(S(=O)(=O)c2ccc(Br)cc2)CC1)Nc1ccc2c(c1)OCO2" ?
Response: < 4.10

Prompt: Would you kindly share the measured pIC50 for COc1ccc(CN2C(=O)C(Cc3ccccc3)Nc3ncnc(N4CCN(c5ccccc5)CC4)c32)cc1 (stereo unspecified) ?
Response: 5.11

Data origin: PubChem BioAssay AID624129
